- Protocol summary: Cytotoxicity against human MT4 cells assessed as reduction in cell viability incubated for 5 days by MTT assay
- Format: toxicity, cell-based
- Recorded conditions: time 5 day
Assay readout: CC50 at 120 h

Cc1cc(C#N)cc(C)c1Oc1nc(Nc2ccc(C#N)c(C#N)c2)c(C#N)cc1Cl | 202 µM
Cc1cc(C#N)cc(C)c1Oc1nc(Nc2ccc(C#N)cc2)nc(N)c1Br [ETRAVIRINE] | > 4.6 µM
Cc1ccnc2c1NC(=O)c1cccnc1N2C1CC1 [NEVIRAPINE] | > 9.51 µM
Cc1cn([C@@H]2C[C@@H](N=[N+]=[N-])[C@H](CO)O2)c(=O)[nH]c1=O | > 7.48 µM
Cc1cc(C#N)cc(C)c1Oc1ccc(C#N)c(Nc2ccc(C#N)cc2)n1 | > 65.2 µM
O=C1Nc2ccc(Cl)cc2[C@@](C#CC2CC2)(C(F)(F)F)O1 [EFAVIRENZ] | > 6.34 µM

Exercise: Field request: CC50 at 120 h | item: `Cc1cc(C#N)cc(C)c1Oc1nc(Nc2ccc(C#N)cc2)c(C#N)cc1F`
Key: > 62.3 µM

* * *

- Study system: Human immunodeficiency virus type 1 reverse transcriptase (Human immunodeficiency virus 1, UniProt Q72547)
Each entry below carries its reported pIC50.
In plain terms, pIC50 is the concentration in mol/L turned into minus its base-10 logarithm.

Here's what some known entries look like.
Cc1cc(C#N)cc(C)c1Oc1nc(Nc2ccc(C#N)cc2)c(C#N)cc1Cl | 6.82
Cc1cc(C#N)cc(C)c1Oc1nc(Nc2ccc(CN3CCN(S(=O)(=O)N(C)C)CC3)cc2)c(C#N)cc1F | 5.59

Exercise: Look up pIC50: `Cc1cc(C#N)cc(C)c1Oc1nc(Nc2ccc(C#N)c(F)c2)c(C#N)cc1F`
Key: 6.84

Exercise: # get_value(readout='pIC50', item= `Cc1cc(C#N)cc(C)c1Oc1nc(NC2CCN(Cc3ccc(C(N)=O)cc3)CC2)c(C#N)cc1F` )
Key: 6.52
